growth listing for selected compounds.
system: CCRF-CEM leukemia; assay: NCI-60 one-dose screen, 48 h (100 = growth as untreated, 0 = no growth, -100 = all killed); conditions: 10 µM unless noted
Compounds without any hit were thinned out: in the full panel of roughly 83,000, 20% have a hit.
Record the value in %, omitting the unit from your answer.

Consider the following illustrative entries.
[
  {
    "smiles.code": "COc1cc(/C=N/NC(=O)Cn2c(C(C)C)nc3ccccc32)ccc1O",
    "assay.endpoint": "growth",
    "measure.unit": "%",
    "obs.value": 94.5
  },
  {
    "smiles.code": "C[n+]1cc2c3c(ccc2c2ccc4cc5c(cc4c21)OCO5)OCO3",
    "assay.endpoint": "growth",
    "measure.unit": "%",
    "obs.value": 11.8
  }
]

[ask] What does the data say about its growth? Entry: Cc1cccc(NC(=O)CSc2nc3ccccc3[nH]2)c1
[reply] 102

[ask] Entry O=[N+]([O-])c1ccc(N2c3ccncc3Sc3ccncc32)cc1 has what growth?
[reply] 101

[ask] Name the recorded growth for COc1cccc(-c2nn(-c3ccccc3)cc2-c2ccnc(NCCNC(=O)Nc3cccc(C(F)(F)F)c3)c2)c1 .
[reply] 28.7

[ask] For the compound COc1ccc(-c2c(N)n[nH]c2-c2ccc(Cl)cc2O)cc1OC , what growth is on record?
[reply] 69.1

[ask] Consider the compound shown here: C=CCNc1nc(NN2C(=O)c3cccc4cccc(c34)C2=O)nc(-n2cnc3ccccc32)n1 What is its recorded growth?
[reply] 83.8

----------
system: K-562 leukemia; experiment: NCI-60 one-dose screen, 48 h; details: 10 µM unless noted
The panel holds about 83,000 compounds, 20% with a hit somewhere; the sample as a whole holds those more often. Active and inactive are the calls of the source. The calls were made as follows: active = growth percent below 10; inactive = the rest.
Reply using exactly one outcome from Y = active, N = inactive

[
  {
    "molecule": "CCN(CCNc1ccc(C)c2sc3ccccc3c(=O)c12)CC(C)(C)O",
    "tested.target": "K-562 leukemia",
    "category": "Y"
  },
  {
    "molecule": "C=CCNc1nc(NN2C(=O)c3cccc4cccc(c34)C2=O)nc(-n2cnc3ccccc32)n1",
    "tested.target": "K-562 leukemia",
    "category": "Y"
  },
  {
    "molecule": "Clc1cc(Cl)cc(Nc2ccc3cc(OCCCN4CCOCC4)ccc3n2)c1",
    "tested.target": "K-562 leukemia",
    "category": "Y"
  },
  {
    "molecule": "NS(=O)(=O)c1ccc(-n2nc(C(=O)N/N=C\\c3ccc(F)cc3)cc2-c2ccc(Cl)cc2)cc1",
    "tested.target": "K-562 leukemia",
    "category": "N"
  }
]

[ask] What is the recorded call for this molecule in the test? COc1ccc(C2=Nc3c(N)ncnc3NC(c3ccc4c(c3)OCO4)C2)cc1 (stereo unspecified)
[reply] N

[ask] Assay outcome for COc1ccc2occ(C3=C(c4c[nH]c5ccccc45)C(=O)N(O)C3=O)c2c1 : what was it?
[reply] N

[ask] Short answer needed: outcome of this test for CCCCCCN(CCCCCC)c1ccc(/C=C2/SC(=O)N(c3nc(N4CCCC4)nc(N4CCCC4)n3)C2=O)c(C)c1 ?
[reply] N

----------
system: OVCAR-4 ovarian; assay: NCI-60 one-dose screen, 48 h (100 = growth as untreated, 0 = no growth, -100 = all killed); details: 10 µM unless noted
Compounds without any hit were thinned out: in the full panel of roughly 83,000, 20% have a hit.
assay.endpoint: growth (%)
All answers are understood in %, so give the number only.

Answered examples (5):
[
  {
    "compound": "Cn1cc2c(c1)-c1nc(Nc3ccccc3)ncc1CC2",
    "tested.target": "OVCAR-4 ovarian",
    "growth / %": 69.3
  },
  {
    "compound": "Cc1cccc(Cc2cnc(NC(=O)c3ccc4nnsc4c3)s2)c1",
    "tested.target": "OVCAR-4 ovarian",
    "growth / %": 98.3
  },
  {
    "compound": "COc1cccc(-c2nn(-c3ccccc3)cc2-c2ccnc(NCCNC(=O)c3ccccc3)c2)c1",
    "tested.target": "OVCAR-4 ovarian",
    "growth / %": 53.7
  },
  {
    "compound": "Cn1c(-c2c(N)n(Cc3cccnc3)c3nc(C#N)c(C#N)nc23)nc2ccccc21",
    "tested.target": "OVCAR-4 ovarian",
    "growth / %": 102
  },
  {
    "compound": "CC(=O)O[C@]1(C(C)=O)CCC2C3C[C@H](C)C4=CC(=O)CC[C@]4(C)C3CC[C@@]21C (stereo not given in full)",
    "tested.target": "OVCAR-4 ovarian",
    "growth / %": 93
  }
]

[ask] I am curious: what growth value has been reported for N#CC1=C(NC=O)Oc2c(ccc3ccccc23)C1c1ccccc1 (stereo not given) ?
[reply] 64.5

[ask] What value of measured growth is listed for COc1ccc2c(c1)O/C(=C\c1cccc(OCC(=O)Nc3nc4ccccc4s3)c1)C2=O ?
[reply] 81.7

[ask] May I ask what growth has been recorded for C=CCSc1nc2ccccc2cc1/C=N/O ?
[reply] 107

Provenance of the data: PubChem BioAssay (NCI)
